# Test system: MDA-MB-231 breast
# measurement-description: NCI-60 one-dose screen, 48 h (100 = growth as untreated, 0 = no growth, -100 = all killed)
# reported-conditions: 10 µM unless noted
This is part of a sample that, as a whole, favours compounds with a hit. Of some 83,000 tested, about 20% had one in any assay.
Decide by growth: equal to or exceeding 80% means y, less means n.

These solved cases illustrate the format of a correct answer.
structure-smiles-string: CN(C)CCCn1c2nc(=O)[nH]c(=O)c-2nc2cc(Cl)c(Cl)cc21
classification: y

structure-smiles-string: Cc1c(C(C)(C)O)cn2ncnc(Oc3ccc(NC(=O)Nc4ccc(Cl)c(C(F)(F)F)c4)cc3)c12
classification: n

structure-smiles-string: O=C1C(N2CCOCC2)=C(I)C(=O)c2ncccc21
classification: y

Task item: Kindly determine if growth recorded for `CCCCCCNC(=O)Oc1ccc(/C(=C(/CC)Cc2ccccc2)c2ccc(OCCCN(C)C)cc2)cc1` is above or exactly 80%.
Reply: n

====

Kindly state growth for each of the entries shown.
# System: EKVX NSCLC
# measurement-description: NCI-60 one-dose screen, 48 h (100 = growth as untreated, 0 = no growth, -100 = all killed)
# reported-conditions: 10 µM unless noted
This is part of a sample that, as a whole, favours compounds with a hit. Of some 83,000 tested, about 20% had one in any assay. Calls of active or inactive are those of the source. Rule for the calls: active = growth percent below 10; inactive = the rest.

A selection of reference data follows.
compound: O=[N+]([O-])c1ccc(S(=O)Cc2ccccc2)c([N+](=O)[O-])c1 (centres undefined)
growth: 90.4% (inactive)

compound: C=CCN1C=CC(=O)[C@H](O[Si](C)(C)C(C)(C)C)[C@@H]1/C=C/c1ccccc1
growth: -48% [100 µM] (active)

compound: C=C1C(=O)O[C@H]2[C@H]1CC/C(COC(=O)NCc1ccc(Cn3c(=O)sn(CCCI)c3=O)cc1)=C\CC[C@@]1(C)O[C@@H]21
growth: 91.7% (inactive)

compound: O=C1C(=C(O)c2ccccc2)C(=O)c2ccccc21
growth: 104% (inactive)

compound: C=C1CC[C@@H]2[C@](C)(COC(C)=O)[C@H](OC(C)=O)CC[C@@]2(C)[C@@H]1CC(Nc1ccc(S(=O)(=O)Nc2nccs2)cc1)C1=CCOC1=O (some centres undefined)
growth: 73.4% (inactive)

Dear reader, for each entry below, please note its growth.
1. O=C1OCC2=C1C(c1cccc(C(F)(F)F)c1)c1cc3c(cc1N2CCO)CCC3 (centres undefined)
2. COC(=O)c1nc(-c2ccc(C)cc2)oc1S(=O)(=O)c1ccc(Cl)cc1
3. Clc1ccc(CNc2ccc3nc(CCC4CCCCC4)[nH]c3c2)cc1
4. COc1cc2cc(NCc3ccncc3)nc(C)c2cc1OC
5. N#Cc1c(N)nnn1Cc1cc(=O)oc2ccc(O)cc12
6. Cc1nn(-c2nc(-c3cc4ccccc4oc3=O)cs2)c(C)c1N=Nc1ccccc1

Reply:
1: 40.7% (inactive); 2: 108% (inactive); 3: 75.6% (inactive); 4: 96.3% (inactive); 5: 117% (inactive); 6: 99.8% (inactive)

Go through the items and report each one's growth.
1. COC1/C=C/OC2(C)Oc3c(C)c(O)c4c(O)c(c(C=NOC(c5ccccc5)c5ccccc5)c(O)c4c3C2=O)NC(=O)/C(C)=C/C=C/C(C)C(O)C(C)C(O)C(C)C(OC(C)=O)C1C (centres undefined)
2. Cn1ccnc1CN1CCSC(C(=O)Nc2ccccc2)C1 (centres undefined)
3. O=C(O)C1C2CCC1C(O)C2 (centres undefined)
4. COc1ccc(/C=N\Nc2nc(SCC(C)C)nc(-c3ccc(OC)cc3)c2C#N)cc1
5. COc1ccc(-c2ccccc2)cc1-c1c(Nc2cc(Cl)cc(Cl)c2O)c(=O)c1=O
6. O/N=C(/c1ccccc1)c1ccc2c3c(cccc13)CC2
7. COc1ccc(Oc2nc(Nc3ccc(N4CCOCC4)cc3)ncc2NC(=O)c2cc(OC)cc(OC)c2)cc1
8. O=C(NCc1cccnc1)/C(=C\c1ccc(Br)cc1)S(=O)(=O)c1ccccc1

Reply:
["20.4% (inactive)", "106% (inactive)", "110% (inactive)", "35.1% (inactive)", "10.2% (inactive)", "79.5% (inactive)", "94.8% (inactive)", "11.1% (inactive)"]

Answer for every listed entry: what is its growth? The entries follow.
1. COc1ccc(-c2nc(Cl)c3c(C)nn(-c4ccc(F)cc4)c3n2)cc1
2. Cc1ccc(C(=O)Nc2ccc(CN3CCN(C)CC3)c(C(F)(F)F)c2)cc1C#Cc1cnc(N)cc1C#N
3. COc1cc(/C=C/C(=O)c2ccc(NC(=O)CSc3nnc(-c4cc(-c5ccccc5)nc5ccccc45)n3-c3ccccc3)cc2)cc(OC)c1OC
4. CCCc1cc(C(N)=S)ccn1
5. N=c1ccccn1CCO
6. COc1ccc2c(c1)c(C(=O)c1nc(-c3cn(C)c4ccccc34)no1)cn2C

Reply:
111% (inactive)
-36.8% (active)
84.9% (inactive)
99.1% (inactive)
121% (inactive)
103% (inactive)
